self-cleavage: recorded values
B1: CPEB3 Ribozyme (parent)
chain: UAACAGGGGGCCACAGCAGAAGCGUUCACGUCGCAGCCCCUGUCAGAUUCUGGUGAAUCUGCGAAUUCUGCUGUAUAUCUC

Variants of: B1
assay_method_text: self-cleavage, relative activity (ratio to wild type); higher = more cleavage; in vitro, sequencing
API doc: respond with a numeric literal and nothing else, no unit.

variant_identifier="G9A G16A" property_label=self-cleavage numeric_value=0.17
variant_identifier="C59U U74C" property_label=self-cleavage numeric_value=1.1
variant_identifier="A20G A57G" property_label=self-cleavage numeric_value=0.7
variant_identifier="U41A U48G" property_label=self-cleavage numeric_value=0.37
variant_identifier="U26A C71A" property_label=self-cleavage numeric_value=0.2

Now for a further variant.
**Query** Determine its reported self-cleavage: A65U U76A
**Result** 0.19

This collection of values is drawn from the RNAGym collection of RNA variant scans (doi:10.1093/nar/gkz1192).
